Ref: PubChem BioAssay AID2305

test system: P. falciparum 3D7 growth, pLDH absorbance; experiment: blood-stage malaria parasite growth potency – strain 3D7, dose response (AID 2305)
MEASUREMENT LABEL: IC50 (nM)
Enter your answer as a number in nM; do not include the unit.

MOLECULE	REPORTED
FC(F)(F)c1cccc(CNCC2CCN(Cc3ccc4c(c3)OCO4)CC2)c1	730
Cc1cccc(CNc2nc(C)cc(N[C@@H](Cc3ccccc3)C(=O)NCCOc3ccccc3)n2)c1	910
Cc1csc(-c2nc(NCc3cccnc3)ncc2-c2ccsc2)n1	1190
CCCCCn1c(Sc2ccc(C#N)c([N+](=O)[O-])c2)nnc1-c1cccs1	780
COCCn1ccc2c3c(N)nc(N)nc3ccc21	210
Cc1noc(C)c1-c1cccc(CNCc2cccc(-c3ccc(-c4nc5ccccc5[nH]4)cc3)c2)c1	230
Cc1cc(C2CCN(CCCCNC(=O)c3ccc(NC(=O)c4ccc(Cl)cc4)cc3)CC2)c(C)cc1OCc1ccccn1	800
COc1ccc(O)cc1Cc1cnc2nc(N)nc(N)c2c1C	10

Look at this molecule and give its reported IC50. CN(Cc1ccccc1)C1CCCN(c2cc(NC(=O)c3ccc(F)cc3)ccn2)C1 (centres undefined)
990

Requested field: IC50. Item: CCOC(=O)C1CCN(CCCNC(=O)/C(=C/C=C/c2cc3cc(Cl)c(Cl)cc3[nH]2)OC)CC1
1040

Report IC50 for Cc1ccc(NC(=O)c2ccc3ncccc3c2)cc1OC1CCN(Cc2ccc(F)cc2)CC1 please.
940

I have this molecule here, CC(C)CCCC(C)NC[C@@H](O)[C@H](Cc1ccccc1)NC(=O)c1cc(N2CCCC2=O)cc(N(c2ccccc2)S(C)(=O)=O)c1 (some centres undefined) , and I need its recorded IC50.
60

----------
tested on: P. falciparum 3D7 growth, pLDH absorbance; assay: blood-stage malaria parasite growth potency – strain 3D7, dose response (AID 2305)
Classify: Condition met when IC50 is strictly less than 900 nM; Condition not met when IC50 is not.

Illustrative cases are given below, each with its answer.
COMPOUND	QUALITATIVE LABEL
Cc1[nH]c2ccc(NS(C)(=O)=O)cc2c1C1CCN(CCC2CCN(C(=O)/C=C/c3ccc(Cl)c(Cl)c3)CC2)CC1	Condition met
Cc1c(C(C)(C)C)ccc2nc(N)nc(N)c12	Condition met
O=C(Nc1ccccc1)N(Cc1cccc(-c2ccc(CNCc3ccc4c(c3)OCO4)cc2)c1)C1CCN(Cc2ccccc2)CC1	Condition met

Would you kindly verify if IC50 of Cc1ccccc1C1CCN(C2CCC(NC(=O)c3ccc4c(c3)-c3nocc3C(C)O4)CC2)CC1 (stereo not given) is strictly less than 900 nM?
Condition not met

# strict comparison: is reported IC50 < 900 nM? input = CCc1ccc(N2C(N)=NC(N)=NC2(C)C)cc1
Condition met

I'd appreciate it if you could check whether Cc1ccc(F)c(C(=O)Nc2cccc(-c3nn4ccccc4c3-c3ccnc(Nc4cccc(F)c4)n3)c2)c1F has IC50 smaller than 900 nM.
Condition not met

----------
tested on: P. falciparum 3D7 growth, pLDH absorbance; assay: blood-stage malaria parasite growth potency – strain 3D7, dose response (AID 2305)
MEASUREMENT LABEL: pIC50
In plain terms, pIC50 is the concentration in mol/L turned into minus its base-10 logarithm.

Some solved cases for reference:
COMPOUND	ASSAYED SYSTEM	pIC50
CN1CC=C(C=Cc2c[nH]c3ccccc23)CC1	P. falciparum 3D7 growth, pLDH absorbance	5.87
COc1nc2c(CCN3CC[C@H](NCc4cc(C#N)c5c(c4)CCO5)[C@H](O)C3)ccnc2cc1F	P. falciparum 3D7 growth, pLDH absorbance	6.46
COc1ccc(-c2ccc(NC(=O)c3cccc(C#N)c3)cc2)cc1CN(C)C	P. falciparum 3D7 growth, pLDH absorbance	6.14
Oc1cc(Nc2ccnc3cc(I)ccc23)c(F)cc1Cl	P. falciparum 3D7 growth, pLDH absorbance	6.08
CN1CCC(C(=O)Nc2cccc(-c3ccc(-c4nc5ccccc5[nH]4)cc3)c2)CC1	P. falciparum 3D7 growth, pLDH absorbance	5.96
COc1ccc(CN2CCC(C(=O)Nc3cccc(-c4cccc(Cl)c4)c3)CC2)cc1O	P. falciparum 3D7 growth, pLDH absorbance	6.01
CCN(CC)CCCC(C)Nc1c2ccc(Cl)cc2nc2ccc(OC)cc12 (stereo unspecified)	P. falciparum 3D7 growth, pLDH absorbance	7.40
O=C(COc1ccccc1)Nn1cnc2ccccc21	P. falciparum 3D7 growth, pLDH absorbance	5.98
O=c1cc(NCCCNCc2sc(Br)nc2Br)[nH]c2ccccc12	P. falciparum 3D7 growth, pLDH absorbance	6.06
Cc1ccc(C2=NNC3(S2)C(=O)Nc2ccc(C)cc23)cc1 (stereo unspecified)	P. falciparum 3D7 growth, pLDH absorbance	5.99

// next entry
I would be grateful if you could share the reported pIC50 for Cc1cccc(C(=O)N2CCN(Cc3cccc(NC(=O)c4ccco4)c3)CC2)c1 .
6.12

----------
pIC50 reference
tested on: P. falciparum 3D7 growth, pLDH absorbance; experiment: blood-stage malaria parasite growth potency – strain 3D7, dose response (AID 2305)
// field semantics: pIC50 = negative decimal log of concentration (mol/L)

Below are worked cases with known answers.
COMPOUND	REPORTED
O=C(CC1NC(=O)c2ccccc21)Nc1ccc(-c2cccc(-c3nc4ccc(C(F)(F)F)cc4[nH]3)c2)cc1 (centres undefined)	6.02
COc1ccc(Cn2c(Nc3cccc(C(F)(F)F)c3)nc3ccc(C(=O)NCCN4CCCC4)cc32)cc1Cl	6.12

Sample Cc1cccc(CN2CCC(Oc3ccc(NC(=O)c4cccs4)cc3Cl)CC2)n1 — what was its pIC50?
6.08

Can you look up the measured pIC50 of Cc1cc(=O)c2cc(Oc3cccc(OC(F)(F)F)c3)ccc2[nH]1 for me?
6.07

I am curious: what pIC50 value has been reported for CCCCCC(C)C(C)c1cc(OC(N)=O)c2c(c1)OC(C)(C)C=C2c1ccncc1 (centres undefined) ?
6.05

For the compound shown here, COc1ccccc1CN1CCC(CNC(=O)c2cc(-c3ccc(N(C)C)cc3)cs2)C1 (centres undefined) , give the reported pIC50.
5.90

Report pIC50 for Cc1ccc2nc(Cl)c3cc(C(=O)NCCCN4CCCC4)sc3c2c1 please.
5.94

# lookup: pIC50 of CN(CCCCNC(=O)c1ccc(-c2ccccc2)cc1)C1CCc2c(O)cccc2C1 (centres undefined)
6.14

For the compound COc1nc2c(N3CCN(CCNCc4ccc5c(n4)NC(=O)CS5)CC3)ccnc2cc1F , what pIC50 is on record?
6.15

Please give the measured pIC50 for this compound: COc1cccc(C(=O)N2CCN(Cc3cccc(NC(=O)c4cccs4)c3)CC2)c1
6.32

Which measured pIC50 value corresponds to CCC1(CC)CN(c2ccccc2)c2ccc(O)cc2S(=O)(=O)C1CC(C)C (centres undefined) ?
6.40

Recorded pIC50 for Cc1nn(-c2ccccc2)c2c1C(c1ccc(C(C)C)cc1)N1C(=N2)N(Cc2ccccc2)c2ccccc21 (centres undefined) , please?
6.11

Looking for the measured pIC50 of CCCCNCc1ccc(-c2nc(CN(CCCn3ccnc3)C(=O)Nc3ccc(CC)cc3)cs2)cc1 , can you help?
6.08

----------
test system: P. falciparum 3D7 growth, pLDH absorbance; assay: blood-stage malaria parasite growth potency – strain 3D7, dose response (AID 2305)
The following compounds are listed with their measured pIC50 values.
pIC50 here: minus log base 10 of the concentration, concentration in moles per litre.

Recorded pIC50, per entry:
COMPOUND	pIC50
O=C(Nc1cccc(CN2CCN(Cc3ccc(O)cc3)CC2)c1)c1cccc(C(F)(F)F)c1	5.92
CCc1c(CCNCCCCCCNCCc2ccc(Br)cc2)ccc(OC)c1OC	6.64
O=C(Nc1ccccc1O)c1ccc(Oc2cccc(C(=O)Nc3ccccc3O)c2)cc1	6.10

API: the following record is the query input.
Query (compound): COc1ccc2nc(C)cc(NN=Cc3cc(OC)c(OC)cc3OC)c2c1 ; field requested: pIC50
6.13

----------
system: P. falciparum 3D7 growth, pLDH absorbance; experiment: blood-stage malaria parasite growth potency – strain 3D7, dose response (AID 2305)
Flag rule - IC50 less than 800 nM flags class 1; the remaining entries get class 0.

Record excerpt, results attached:
COMPOUND	QUALITATIVE LABEL
Oc1ccc(CCNc2nc(NCCCOc3ccccc3-c3ccc(C(F)(F)F)cc3)nc(N3CCNCC3)n2)cc1	class 0
CC(CN1CCN(C)CC1)C(=O)Nc1ccc(-c2cccc(-c3nc4ccc(C(F)(F)F)cc4[nH]3)c2)cc1 (centres undefined)	class 1
CC(C)CCN=C(N)Nc1ccc(OCCCOc2ccc(NC(N)=NCCC(C)C)cc2)cc1	class 1
Cc1ccc(NC(=O)c2ccc3ncccc3c2)cc1OC1CCN(Cc2ccc(F)cc2)C1 (centres undefined)	class 0
O=C(Nc1ccc(Cl)cc1)c1ccc(CN2CCCN(Cc3cccc(Cl)c3)CC2)cc1	class 0

Does the reported IC50 of O=C(c1cccc(-c2cccc(-c3nc4ccc(C(F)(F)F)cc4[nH]3)c2)c1)N1CCCCC1CN1CCC(O)C1 (centres undefined) stay below 800 nM?
class 1

Could you please tell me whether IC50 recorded for COc1c(C2CCN(CCCCNC(=O)c3oc(-c4ccc(Cl)cc4)cc3CO)CC2)ccc2c1CCCC2 is less than 800 nM?
class 1

Consider Cc1cc(OCC2CCCN(c3ncc(C(=O)NC4CC4)cc3Cl)C2)ccc1F (centres undefined) . Does its IC50 lie strictly below 800 nM?
class 0
